Data provenance is paper PMC5562876.

- target: T1, MPK6 (purified, pull-down) (Arabidopsis thaliana, UniProt Q39026 1-395)
- T1 construct: MPK6, MAP kinase 6, Arabidopsis thaliana, At2G43790; fusion protein; source: E. coli, purified (glutathione agarose beads)
- T1 sequence (Q39026 whole entry, the tested form may be a part): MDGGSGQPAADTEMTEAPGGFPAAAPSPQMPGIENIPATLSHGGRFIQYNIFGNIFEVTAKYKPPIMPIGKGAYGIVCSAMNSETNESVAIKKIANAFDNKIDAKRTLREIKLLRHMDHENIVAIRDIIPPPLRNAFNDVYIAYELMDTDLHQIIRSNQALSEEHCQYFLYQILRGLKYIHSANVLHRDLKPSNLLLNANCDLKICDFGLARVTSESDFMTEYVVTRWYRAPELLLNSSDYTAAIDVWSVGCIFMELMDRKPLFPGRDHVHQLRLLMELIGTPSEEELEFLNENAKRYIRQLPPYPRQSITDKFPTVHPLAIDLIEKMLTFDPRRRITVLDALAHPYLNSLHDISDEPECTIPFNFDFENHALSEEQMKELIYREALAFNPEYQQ
- protocol-description: pull-down; purified fusion proteins from E. coli incubated with glutathione agarose beads, 25 mM Tris-HCl pH 7.5, 100 mM NaCl, 1 mM DTT, 1 hr; seven washes with 0.1% Triton X-100; eluted with 15 mM GSH; immunoblot
- conditions-used: both partners purified
readout-label: binding result

{"binder": "GPA1 (purified, pull-down) (natural protein, Arabidopsis thaliana, UniProt P18064 1-383, looked up, GPA1, G protein alpha subunit, Arabidopsis thaliana, At2G26300; fusion protein; also called WtGPA1; source: E. coli, purified (glutathione agarose beads)) MGLLCSRSRHHTEDTDENTQAAEIERRIEQEAKAEKHIRKLLLLGAGESGKSTIFKQIKLLFQTGFDEGELKSYVPVIHANVYQTIKLLHDGTKEFAQNETDSAKYMLSSESIAIGEKLSEIGGRLDYPRLTKDIAEGIETLWKDPAIQETCARGNELQVPDCTKYLMENLKRLSDINYIPTKEDVLYARVRTTGVVEIQFSPVGENKKSGEVYRLFDVGGQRNERRKWIHLFEGVTAVIFCAAISEYDQTLFEDEQKNRMMETKELFDWVLKQPCFEKTSFMLFLNKFDIFEKKVLDVPLNVCEWFRDYQPVSSGKQEIEHAYEFVKKKFEELYYQNTAPDRVDRVFKIYRTTALDQKLVKKTFKLVDETLRRRNLLEAGLL", "readout-label": "binding result", "assay-result": "binds"}
{"binder": "AGG1 (purified, pull-down) (natural protein, Arabidopsis thaliana, UniProt Q9FDX9 1-98, looked up, AGG1, G protein gamma subunit 1, Arabidopsis thaliana, At3G63420; fusion protein; source: E. coli, purified (glutathione agarose beads)) MREETVVYEQEESVSHGGGKHRILAELARVEQEVAFLEKELKEVENTDIVSTVCEELLSVIEKGPDPLLPLTNGPLNLGWDRWFEGPNGGEGCRCLIL", "readout-label": "binding result", "assay-result": "binds"}
